Tested on: HCT116 cells
Assay name: In vitro antiproliferative assay
Type: cell-based
Experimental context: Homo sapiens, HCT-116, 48 h, read-out: HCT116 IC50
Experimental endpoint: pIC50
On this scale, pIC50 is minus log10 of a concentration expressed in M (mol/L).

Worked examples, 6 compounds total:
O=C(NO)c1ccc(NC(=O)[C@@H](NCc2ccc(Cl)cc2)c2ccccc2)cc1 [Compound 9e] ... 5.52
O=C(NO)c1ccc(NC(=O)[C@@H](NCc2ccccc2Cl)c2ccccc2)cc1 [Compound 9b] ... 5.26
COc1cc(CN[C@H](C(=O)Nc2ccc(C(=O)NO)cc2)c2ccccc2)ccc1O [Compound 9g] ... 5.21
COc1ccccc1CN[C@H](C(=O)Nc1ccc(C(=O)NO)cc1)c1ccccc1 [Compound 9a] ... 5.85
O=C(NO)c1ccc(NC(=O)[C@@H](NCc2ccccc2Br)c2ccccc2)cc1 [Compound 9c] ... 5.64
O=C(NO)c1ccc(NC(=O)[C@@H](NCc2ccc(O)cc2)c2ccccc2)cc1 [Compound 9f] ... 5.52

Turning to the following compound.
QUERY: Form field: pIC50 recorded for COc1cccc(CN[C@H](C(=O)Nc2ccc(C(=O)NO)cc2)c2ccccc2)c1 [Compound 9d] with HCT116 cells (enter value)
RESULT: 5.89

Every entry's value here was drawn from paper PMC4603714.
